- Test system: SEM cells
- MEASUREMENT PROTOCOL: cell viability relative to DMSO control; higher = less cytotoxic
- CONDITION SET: RPMI 5 mM glucose + 10% dialyzed FBS; 48 h; 0.0211 µM
RESULT TYPE: cell viability (%)
Only the number, expressed in %, is required.

Please review the entries below; each comes with its answer.
{"COMPOUND": "COc1cc(OC)c(OC)cc1C=O", "SYSTEM NAME": "SEM cells", "RESULT TYPE": "cell viability", "VALUE OBSERVED": 144}
{"COMPOUND": "ClC1=CC\\2=C(NC(=O)\\C(=C2N[C@@H]3CN4CCC3CC4)C5=NC6=C([NH]5)C=CC=C6)C=C1", "SYSTEM NAME": "SEM cells", "RESULT TYPE": "cell viability", "VALUE OBSERVED": 86.8}
{"COMPOUND": "CNCc1ccc(-c2[nH]c3cc(F)cc4c3c2CCNC4=O)cc1", "SYSTEM NAME": "SEM cells", "RESULT TYPE": "cell viability", "VALUE OBSERVED": 115}

Turning now to a further record.
-- ask Consider the compound COc1cc2nc(-c3cc(F)ccc3O)nc(N[C@@H]3CNC[C@H]3C(C)(C)O)c2cc1OC and give its recorded cell viability.
-- reply 86.5
